Origin of values: patent US20220281976A1

target: human CD33 (human, UniProt P20138 18-364); assay: cell-based or functional assay
Sequence (P20138 18-364): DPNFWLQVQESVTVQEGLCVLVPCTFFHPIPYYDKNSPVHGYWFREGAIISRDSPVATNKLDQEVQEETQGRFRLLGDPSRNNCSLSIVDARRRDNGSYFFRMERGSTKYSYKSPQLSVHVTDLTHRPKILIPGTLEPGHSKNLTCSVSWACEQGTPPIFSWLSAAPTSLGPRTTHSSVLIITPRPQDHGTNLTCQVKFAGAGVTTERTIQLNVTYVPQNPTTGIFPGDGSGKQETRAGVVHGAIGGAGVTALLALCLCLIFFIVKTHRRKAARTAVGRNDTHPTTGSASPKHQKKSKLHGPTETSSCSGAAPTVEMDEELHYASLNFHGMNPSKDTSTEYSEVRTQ
experimental-readout: Percent CD33 Surface Expression, DC % CD33 (%)
Please reply with the bare figure in % and do not write the unit itself.

stdin: What does the record list as Percent CD33 Surface Expression, DC % CD33 for C-87 (antibody, V domains shown, human IgG1) VH: QLQLQESGPGLVKPSETLSLTCTVSGGSISSSSYAWGWIRQPPGKGLEWIGSIYYSGSTYYNPSLKSRVTISVDTSKNQFSLKLSSVTAADTAVYYCARDPLYPLTPYGMDVWGQGTTVTVSS VL: EIVMTQSPATLSLSPGERATLSCRASQSVSSYLAWYQQKPGQAPRLLIYDASNRATGIPARFSGSGSGTDFTLTISSLEPEDFAVYYCQQLSVFPPTFGGGTKVEIK ?
stdout: 28.4

stdin: What does the record list as Percent CD33 Surface Expression, DC % CD33 for C-35 (antibody, V domains shown, human IgG1) VH: QLQLQESGPGLVKPSETLSLTCTVSGGSISSSSYAWGWIRQPPGKGLEWIGNIYYSGSTYYNPSLKSRVTISVDTSKNQFSLKLSSVTAADTAVYYCARAGYRSPSGFDYWGQGTLVTVSS VL: DIQMTQSPSSVSASVGDRVTITCRASQGISSWLAWYQQKPGKAPKLLIYAASNLQSGVPSRFSGSGSGTDFTLTISSLQPEDFATYYCQQGNAHPTFGGGTKVEIK ?
stdout: 18.7
